Values from the RNAGym collection of RNA variant scans (doi:10.7554/elife.90254)

B1: LINE1-full (parent)
chain: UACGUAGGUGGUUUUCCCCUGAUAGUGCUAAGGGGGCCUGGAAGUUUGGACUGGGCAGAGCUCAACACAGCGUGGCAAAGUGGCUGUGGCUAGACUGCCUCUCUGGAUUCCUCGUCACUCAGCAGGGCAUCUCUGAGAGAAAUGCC

- Variants of: B1
- assay.overview: self-cleavage, relative activity (ratio to wild type); higher = more cleavage; in vitro, sequencing; the parent is a self-cleaving ribozyme
Assign Y whenever self-cleavage does not fall below 0.9; assign N whenever it does.

1) U87G A138U | N
2) G60U U91C | N
3) U81G C113U | Y

Decide: self-cleavage of U14A A79G >= 0.9?
N

Confirm if self-cleavage reported for the variant A65G A78G is 0.9 or above.
N

Evaluate U29A A42G : self-cleavage at minimum 0.9?
Y

Hi team, for U102C U143C , is the recorded self-cleavage at or above 0.9?
Y

Can U62C U73G be said to have self-cleavage at or above 0.9?
N

Is self-cleavage at least 0.9? Consider U46A A77U
Y

Does self-cleavage meet or surpass 0.9 for U23A U47C ?
Y

Textbook exercise: given the entry G41A U112C , state whether its self-cleavage is greater than or equal to 0.9.
Y

In plain terms: is recorded self-cleavage at least 0.9 for U12C U91A ?
N

Has G4U A77G a recorded self-cleavage greater than or equal to 0.9?
Y

Check this variant for self-cleavage at or above 0.9: G54U A129G
Y
